CC50 overview
Assay: Cytotoxicity, tetrazolium salt (MTT) metabolic assay
Format: cell-based
Conditions: cytotoxic effects, read-out: TC50 (the source's name)
observable: CC50

1) CC[C@@H](NC(=O)N1C(=O)C[C@@H]1[C@H](C)Sc1ncccn1)c1ccccc1: > 250 µM
2) O=C(NC[C@H]1CC(=O)N1C(=O)NCc1ccccc1)c1ccccc1: > 250 µM
3) CC[C@@H](NC(=O)N1C(=O)C[C@@H]1CSc1ccncc1)c1ccccc1: > 233 µM
4) CN(Cc1ccc(C(F)(F)F)cc1)C(=O)N1C(=O)C[C@@H]1CSc1ccncc1: > 250 µM
5) CC[C@@H](NC(=O)N1C(=O)[C@@H](C)[C@@H]1CSC1CCCC1)c1ccccc1: > 250 µM
6) CC[C@@H](NC(=O)N1C(=O)C[C@@H]1COC(=O)Nc1ccccc1)c1ccccc1: > 32 µM
7) CC[C@@H](NC(=O)N1C(=O)C[C@@H]1COC(=O)c1cccc2ccccc12)c1ccccc1: > 13 µM
8) CC[C@@H](NC(=O)N1C(=O)[C@@H](C)[C@@H]1CSc1ccncc1)c1ccccc1: 199 µM
9) CC[C@@H](NC(=O)N1C(=O)[C@@H](C)[C@@H]1CSc1nc2ccccc2o1)c1ccccc1: > 250 µM
10) CC[C@@H](NC(=O)N1C(=O)[C@@H](C)[C@@H]1CSc1ccccn1)c1ccccc1: > 250 µM
11) CC[C@@H](NC(=O)N1C(=O)[C@@H](C)[C@@H]1COc1ccccc1)c1ccccc1: > 250 µM
12) CC[C@@H](NC(=O)N1C(=O)C[C@@H]1CSc1nccc(C)n1)c1ccccc1: > 250 µM
13) CC[C@@H](NC(=O)N1C(=O)C[C@@H]1CSC)c1ccccc1: > 250 µM
14) CC[C@@H](NC(=O)N1C(=O)C[C@@H]1CN1CCCCC1)c1ccccc1: > 250 µM
15) CC[C@@H](NC(=O)N1C(=O)C[C@@H]1CSc1ncccn1)c1ccccc1: > 209 µM
16) CC[C@@H](NC(=O)N1C(=O)[C@@H](C)[C@@H]1CSc1nccn1C)c1ccccc1: > 250 µM
17) CN(Cc1ccc(C(F)(F)F)cc1)C(=O)N1C(=O)C[C@@H]1CSc1nc2ncccc2s1: > 18 µM
18) O=C1C[C@H](CSc2ccccc2)N1C(=O)NCc1ccncc1: > 270 µM
19) CC[C@@H](NC(=O)N1C(=O)C[C@@H]1CSc1nccn1C)c1ccccc1: > 268 µM
20) C[C@@H](NC(=O)N1C(=O)C[C@@H]1CSc1ccccc1)c1ccccc1: > 52 µM
21) CN(Cc1ccc(C(F)(F)F)cc1)C(=O)N1C(=O)C[C@@H]1CSc1nc2ccccc2o1: > 250 µM

---

Assay: Cytotoxicity, tetrazolium salt (MTT) metabolic assay
Format: cell-based
Details: cytotoxic effects, read-out: TC50 (the source's name)
observable: CC50

1. CC[C@@H](NC(=O)N1C(=O)[C@@H](C)[C@@H]1CSc1ccc(OC)cc1)c1ccccc1 [Entry 122]: > 250 µM
2. CC[C@@H](NC(=O)N1C(=O)C[C@@H]1CS(=O)(=O)c1ccccc1)c1ccccc1 [Entry 144]: 58 µM
3. CC[C@@H](NC(=O)N1C(=O)C[C@@H]1CSc1ccccc1)c1ccccc1 [Entry 129]: > 250 µM

---

Molecular target: HCMV NO protease (Human cytomegalovirus, UniProt P16753)
Sequence (P16753 1-256): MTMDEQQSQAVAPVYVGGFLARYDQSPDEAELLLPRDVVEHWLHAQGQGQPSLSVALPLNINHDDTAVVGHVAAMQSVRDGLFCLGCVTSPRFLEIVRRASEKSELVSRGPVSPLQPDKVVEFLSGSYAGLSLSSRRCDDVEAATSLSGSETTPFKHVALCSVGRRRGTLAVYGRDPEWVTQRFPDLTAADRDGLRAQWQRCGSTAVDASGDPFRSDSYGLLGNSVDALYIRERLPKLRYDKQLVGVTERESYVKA
pIC50: −log10 of the molar value.
Assign criterion met to entries whose pIC50 meets or exceeds 5; assign criterion not met to the rest.

1. CC[C@@H](NC(=O)N1C(=O)C[C@@H]1CSc1ncccn1)c1ccccc1: criterion met
2. CC[C@@H](NC(=O)N1C(=O)[C@@H](C)[C@@H]1CSc1ccccc1)c1ccccc1: criterion met
3. CN(C)C(=O)c1ccc(CN(C)C(=O)N2C(=O)C[C@@H]2CSc2ncccn2)cc1: criterion not met
4. COC(=O)c1ccc(CN(C)C(=O)N2C(=O)C[C@@H]2CSc2nccc(C)n2)cc1: criterion met
5. CC[C@@H](NC(=O)N1C(=O)[C@@H](C)[C@@H]1CSc1nccn1C)c1ccccc1: criterion met
6. COC(=O)c1ccc(CN(C)C(=O)N2C(=O)C[C@@H]2CSc2nc3ccccc3o2)cc1: criterion met
7. CC[C@@H](NC(=O)N1C(=O)C[C@@H]1COC(=O)c1cccc2ccccc12)c1ccccc1: criterion met
8. CC[C@@H](NC(=O)N1C(=O)C[C@@H]1CSc1nc2ncccc2s1)c1ccccc1: criterion met
9. CC[C@@H](NC(=O)N1C(=O)[C@@H](C)[C@@H]1CSc1nnnn1C)c1ccccc1: criterion met
10. CC[C@@H](NC(=O)N1C(=O)C[C@@H]1CSc1nccn1C)c1ccccc1: criterion met
11. COC(=O)c1ccc(CN(C)C(=O)N2C(=O)C[C@@H]2CSc2nccn2C)cc1: criterion not met
12. CC[C@@H](NC(=O)N1C(=O)C[C@@H]1CN1CCCCC1)c1ccccc1: criterion met
13. CN(C(=O)N1C(=O)C[C@@H]1CSc1ncccn1)c1ccccc1: criterion not met
14. CC[C@@H](NC(=O)N1C(=O)C[C@@H]1COc1cccc(CC(=O)O)c1)c1ccccc1: criterion met
15. CC[C@@H](NC(=O)N1C(=O)[C@@H](C)[C@@H]1CSc1ccccn1)c1ccccc1: criterion met
16. CC[C@@H](NC(=O)N1C(=O)C[C@@H]1COC(C)=O)c1ccccc1: criterion met
17. CN(Cc1ccc(C(F)(F)F)cc1)C(=O)N1C(=O)C[C@@H]1CSc1nccn1C: criterion met
18. CN(CC1CCCCO1)C(=O)N1C(=O)C[C@@H]1CSc1ncccn1 (stereo partly shown): criterion not met
19. CC[C@@H](NC(=O)N1C(=O)[C@@H](C)[C@@H]1CSc1ccncc1)c1ccccc1: criterion met
20. CC[C@@H](NC(=O)N1C(=O)C[C@@H]1COC(=O)c1ccc2ccccc2c1)c1ccccc1: criterion met
21. CC[C@@H](NC(=O)N1C(=O)C[C@@H]1CSc1ccccn1)c1ccccc1: criterion met
22. CC[C@@H](NC(=O)N1C(=O)[C@@H](C)[C@@H]1CSc1nc2ccccc2o1)c1ccccc1: criterion met

---

HCMV NO protease (Human cytomegalovirus, UniProt P16753): reported IC50 for various compounds.
observable: IC50 (µM)

1. CC[C@@H](NC(=O)N1C(=O)C[C@@H]1CN1CCOCC1)c1ccccc1 [Entry 205]: 9.4
2. O=C1C[C@H](CSc2ccccc2)N1C(=O)NCc1ccncc1 [Entry 201]: 7.9
3. CC[C@@H](NC(=O)N1C(=O)C[C@@H]1COc1ccccn1)c1ccccc1 [Entry 101]: 8.4
